ASSAY_INFO: Toxicity, 10 day test in rats
STUDY_CONDITIONS: rat, in vivo
RECORDED_METRIC: LD50 at 240 h (mg/kg)
Please give a number only; it is taken to be in mg/kg.

// fetch LD50 at 240 h given entry CN(C)c1ccc(C2OC(C)(C)N=C2c2ccccc2)cc1 (stereo not shown)
970

###

ASSAY_INFO: Toxicity, 10 day test in mice
STUDY_CONDITIONS: mouse, in vivo
RECORDED_METRIC: LD50 at 240 h (mg/kg)
Please give a number only; it is taken to be in mg/kg.

// fetch LD50 at 240 h given entry CN(C)c1ccc(C2OC(C)(C)N=C2c2ccccc2)cc1 (stereo not shown) [A]
220
